tested on: SK-BR-3; test: Cytotoxicity against human SKBR3 cells after 72 hrs by SRB assay; assay type: functional, cell-based; details: sk-br-3
quantity: pIC50
Numbers only, as −log10 of the molar value.

Some compounds with recorded pIC50:
>  <smilesText>
Nc1ccccc1Nc1cc(=O)oc2c1ccc1ccccc12

>  <quantity>
pIC50

>  <experimentalResult>
5.02

$$$$
>  <smilesText>
Nc1ccccc1Nc1cc(=O)oc2c3c(ccc12)CCCC3

>  <quantity>
pIC50

>  <experimentalResult>
5.06

$$$$
>  <smilesText>
Nc1cccc2c(Nc3cc(=O)oc4c3ccc3ccccc34)cccc12

>  <quantity>
pIC50

>  <experimentalResult>
6.62

$$$$

Proceeding to the next compound to report its pIC50.
pIC50 for O=c1cc(NC2CCN(Cc3ccccc3)CC2)c2ccc3c(c2o1)CCCC3 ?
5.03
